# System: M14 melanoma
# assayText: NCI-60 one-dose screen, 48 h
# appliedConditions: 10 µM unless noted
About 83,000 compounds went through this panel and 20% of them were active in at least one assay; those are over-represented in the sample as a whole. Active and inactive are the calls of the source. Rule for the calls: active = growth percent below 10; inactive = the rest.
API: response.call in true (1) (active), false (0) (inactive)

Reference set (4 entries):
- molecule: "CCCC(=O)CC(C)=O.CCCC(=O)CC(C)=O.[Cu]"
  assayedSystem: "M14 melanoma"
  class: "false (0)"
- molecule: "Nc1no[n+]([O-])c1-c1nnc2c(n1)-c1ccccc1C2=O"
  assayedSystem: "M14 melanoma"
  class: "false (0)"
- molecule: "COC(=O)c1c2c(c(C)[n+]([O-])c1C)C(=O)C(NCc1ccc(Br)cc1)=CC2=O"
  assayedSystem: "M14 melanoma"
  class: "true (1)"
- molecule: "NCCOc1ccccc1/C=C1\\c2ccccc2-c2ccc([N+](=O)[O-])cc21"
  assayedSystem: "M14 melanoma"
  class: "true (1)"

Problem: How was COc1ccc(/C=C2\N=C(c3ccccc3)N(c3ccc(-c4nc5ccc(C)cc5s4)cc3)C2=O)cc1 classified in this test?
Solution: false (0)

Problem: How was O=C(Nc1ccc(I)cc1F)c1cc(Br)ccc1O classified in this test?
Solution: true (1)

Problem: How was NCCNc1nc2ccccc2c2c(=O)c3cc(F)cc(Cl)c3sc12 classified in this test?
Solution: true (1)

---

# Test system: MDA-MB-231 breast
# assayText: NCI-60 one-dose screen, 48 h (100 = growth as untreated, 0 = no growth, -100 = all killed)
# appliedConditions: 10 µM unless noted
Compounds without any hit were thinned out: in the full panel of roughly 83,000, 20% have a hit.
readoutKind: growth (%)
Field: numeric (%). Do not append units.

- compound: "O=C(CCc1nnc2sc(Cc3ccccc3Cl)nn12)c1nc2ncccc2[nH]1"
  growth [%]: 73
- compound: "COc1ccc(-c2nc(N3CCN(C(=O)C4CCCCC4)CC3)c3c4c(sc3n2)CCCC4)cc1"
  growth [%]: 36.9
- compound: "CCN(CC)CCNC(=O)C(Cl)=C1C(Cl)=C(Cl)C(Cl)=C1Cl"
  growth [%]: 50.1
- compound: "COc1ccc(-c2nc(-c3ccccc3)c(-c3ccccc3)[nH]2)cc1OC1CCCCC1"
  growth [%]: 67
- compound: "Cc1ccc(F)cc1NC(=O)c1cc(Cl)ccc1Nc1ccccc1"
  growth [%]: 69.7
- compound: "CN1C(=O)N(C)C2C1NN=c1s/c(=C\\c3ccc([N+](=O)[O-])cc3)c(=O)n12 (stereo unspecified)"
  growth [%]: 75.1
- compound: "COc1ccc(-c2c(-c3ccc(OC)c(O)c3)cnc3ncnn23)cc1"
  growth [%]: 102
- compound: "COC(=O)c1c2c(c(C)[n+]([O-])c1C)C(=O)C(NCc1ccc(Br)cc1)=CC2=O"
  growth [%]: 4.21
- compound: "CCCCC1CCc2cccc3c(SCC(=O)N(C)c4ccc(Cl)cc4)cc[n+]1c23 (stereo unspecified)"
  growth [%]: 109
- compound: "NCCNc1nc2ccccc2c2c(=O)c3cc(F)cc(Cl)c3sc12"
  growth [%]: -79.2

MDA-MB-231 breast growth of COc1ccc(S(=O)(=O)N(Cc2ccc3c(n2)C=CC(C)(C)O3)C2CCC2)cc1OC is 3.21

MDA-MB-231 breast growth of O=C(Nc1ccc(N2CCNCC2)cc1)c1[nH]ncc1Nc1ncnc2sc3c(c12)CCC3 is -84.9

MDA-MB-231 breast growth of COc1cccc2cc(N(C)c3nc(C)nc4ccsc34)ccc12 is 28.9

MDA-MB-231 breast growth of O=c1c2cc(F)ccc2sc2c(Nc3ccncc3)nc3ccccc3c12 is -89.7

MDA-MB-231 breast growth of COc1ccc(C2=C(c3cccc(OC)c3)C(=O)c3ccc(C)nc3C2=O)cc1 is 29.4

MDA-MB-231 breast growth of COc1cc(C=C2C(=O)N(C)C(=O)N(C)C2=O)cc(CN2CCCCC2)c1O is 98.1

MDA-MB-231 breast growth of CC1(C)CC2(C)OC2C2(C1)N=NC(=Nc1ccccc1)O2 (stereo unspecified) is 91.8

MDA-MB-231 breast growth of COc1ccc(/C=C/C(=O)c2c(C)nc3ccccc3c2/C=C/c2ccccc2)c(OC)c1 is 68.9

MDA-MB-231 breast growth of O=C1c2ccc3c4c(ccc(c24)C(=O)N1CCCCO)C(=O)N(CCCCO)C3=O is 64.6

MDA-MB-231 breast growth of COc1ccc(C2Nc3ncnc(N)c3N=C3c4ccccc4C(=O)C32)cc1 (stereo unspecified) is 97.9

MDA-MB-231 breast growth of Oc1[nH]c2ccccc2c1N=Nc1nnc2n1N=C(c1ccccc1)CS2 is 88.6

---

List of growth values.
# Tested on: EKVX NSCLC
# assayText: NCI-60 one-dose screen, 48 h (100 = growth as untreated, 0 = no growth, -100 = all killed)
# appliedConditions: 10 µM unless noted
About 83,000 compounds went through this panel and 20% of them were active in at least one assay; those are over-represented in the sample as a whole.
Field: numeric (%). Do not append units.

Below, each entry is followed by its recorded growth result.
- compound: "O=C1Nc2ccccc2/C1=C/c1cccs1"
  readoutKind: "growth"
  observedValue: 73.2
- compound: "O=C1CCC(N2C(=O)c3cccc(NCCCCCCOc4ccc(Nc5nccc(Nc6ccccc6)n5)cc4)c3C2=O)C(=O)N1 (stereo not drawn)"
  readoutKind: "growth"
  observedValue: 77.3
- compound: "CCn1c(Cc2ccccc2Nc2c(Cl)cccc2Cl)nnc1SCC(=O)NN1C(=O)/C(=C/c2cccc(OC)c2OC)SC1=S"
  readoutKind: "growth"
  observedValue: 93.2
- compound: "O=C(c1nc2ccccc2[nH]1)C1C(c2cccc([N+](=O)[O-])c2)C2CC3CCCCC3N2[C@@]12C(=O)Nc1cc(Cl)ccc12 (stereo partly drawn)"
  readoutKind: "growth"
  observedValue: 31.3
- compound: "COc1cc(/C=C2\\CN(C)C/C(=C\\c3cc(CN4CCCC4)c(O)c(OC)c3)C2=O)cc(CN2CCCC2)c1O"
  readoutKind: "growth"
  observedValue: 83.9
- compound: "COc1cc(/C=C/C(=O)c2ccc(Nc3nc(NCCO)nc(N4CCOCC4)n3)cc2)cc(OC)c1OC"
  readoutKind: "growth"
  observedValue: 21.7
- compound: "COc1ccc(C2=C(c3cccc(OC)c3)C(=O)c3ccc(C)nc3C2=O)cc1"
  readoutKind: "growth"
  observedValue: 75.3

Here's the next entry for you.
What the record says about Nc1n[nH]c2ccc([C@@H]3Nc4ccc5[nH]ncc5c4[C@H]4[C@H]5CCC(C5)[C@H]43)cc12 : growth is 40.2

---

# Test system: SK-OV-3 ovarian
# assayText: NCI-60 one-dose screen, 48 h
# appliedConditions: 10 µM unless noted
The panel holds about 83,000 compounds, 20% with a hit somewhere; the sample as a whole holds those more often. Activity calls are given as the source filed them. Rule for the calls: active = growth percent below 10; inactive = the rest.
API: response.call in active, inactive

Reference set (5 entries):
- compound: "O=c1oc2ccc(Br)cc2c(=O)n1-c1ccc(I)cc1F"
  class: "active"
- compound: "CC(C)C[C@H](C(=O)N[C@H](C(N)=O)C(C)C)N1CC=CCN(OCc2ccccc2)S1(=O)=O"
  class: "inactive"
- compound: "CCN1C(=O)N(CC)C2Nn3c(s/c(=C\\c4ccccc4F)c3=O)=NC21 (configuration not stated)"
  class: "inactive"
- compound: "CN1C(=O)N(C)C2Nn3c(s/c(=C4\\C(=O)N(CCc5ccccc5)c5ccccc54)c3=O)=NC21 (configuration not stated)"
  class: "inactive"
- compound: "O=c1oc2ccc(Cl)cc2c(=O)n1-c1ccc(F)cc1F"
  class: "active"

Problem: How was COc1cccc(C(=O)NC(c2ccc(C)cc2)c2cc(Cl)c3cccnc3c2O)c1 (configuration not stated) classified in this test?
Solution: inactive

Problem: How was OC(CNC1CCCCC1)Cn1c2ccc(I)cc2c2cc(I)ccc21 (configuration not stated) classified in this test?
Solution: inactive

Problem: How was COc1ccccc1CNC(=O)C1c2ccccc2C(=O)N(CC(C)C)C1c1cccs1 (configuration not stated) classified in this test?
Solution: inactive

Problem: How was COc1cccc2cc(N(C)c3nc(C)nc4ccsc34)ccc12 classified in this test?
Solution: inactive

Problem: How was N#C/C(=C\c1c(-c2ccccc2)[nH]c2ccccc12)S(=O)(=O)c1ccccc1 classified in this test?
Solution: inactive

---

# Test system: IGROV1 ovarian
# assayText: NCI-60 one-dose screen, 48 h
# appliedConditions: 10 µM unless noted
Compounds without any hit were thinned out: in the full panel of roughly 83,000, 20% have a hit. Calls of active or inactive are those of the source. How the source made its calls: active means growth percent below 10; inactive means the rest.
API: response.call in active, inactive

Reference set (5 entries):
- molecule: "COc1ccc(-c2c(-c3ccc(OC)c(O)c3)cnc3ncnn23)cc1"
  assayedSystem: "IGROV1 ovarian"
  class: "inactive"
- molecule: "CCN(CC)CCNC(=O)C(Cl)=C1C(Cl)=C(Cl)C(Cl)=C1Cl"
  assayedSystem: "IGROV1 ovarian"
  class: "inactive"
- molecule: "O=C(Nc1ccc(C23CC4CC(CC(c5ccccc5)(C4)C2)C3)cc1)c1cccs1"
  assayedSystem: "IGROV1 ovarian"
  class: "inactive"
- molecule: "Nc1ccc(C2c3ccccc3Oc3ccccc32)cc1"
  assayedSystem: "IGROV1 ovarian"
  class: "inactive"
- molecule: "CN=c1ccc2nc3ccc(N)cc3sc-2c1"
  assayedSystem: "IGROV1 ovarian"
  class: "inactive"

Problem: How was Cc1nn(-c2nc3ccccc3[nH]2)c2c1C(c1ccc(OCC(N)=O)cc1)CC(=O)N2 (stereo not given) classified in this test?
Solution: inactive
